- measuredOn: His6-AspH315–758 (human aspartate/asparagine-β-hydroxylase, AspH) (Homo sapiens, UniProt Q12797)
- Construct: N-Terminally His6-tagged human AspH315–758 (His6-AspH315–758) was produced in E. coli BL21 (DE3) cells; made in house; host or cells: E. coli BL21 (DE3), pET-28a(+) vector
- testProtocol: SPE-MS AspH inhibition assay (LOPAC screen at fixed 20 μM and IC50 dose-response), hydroxylation of cyclic peptide hFX-CP101–119
- Assay type: biochemical
- conditionSummary: LOPAC compound at fixed 20 uM; substrate conversion, plate 1
Give Condition met when the value for Plate 1 (% conversion) is at least 40%. Give Condition not met when it is less.

Some entries whose results are on file:
{"compound": "CN(C(=O)CCCOc1ccc2[nH]c(=O)ccc2c1)C1CCCCC1 [Cilostamide]", "groupLabel": "Condition not met"}
{"compound": "COc1cc(Nc2c(C#N)cnc3cc(OCCCN4CCN(C)CC4)c(OC)cc23)c(Cl)cc1Cl [Bosutinib]", "groupLabel": "Condition met"}
{"compound": "N#CCCN.N#CCCN.O=C(O)/C=C/C(=O)O [3-Aminopropionitrile fumarate]", "groupLabel": "Condition not met"}

Form field: Plate 1 (% conversion) at least 40%? Entry: `CSc1nc(N)c2ncn([C@@H]3O[C@H](COP(=O)([O-])OP(=O)([O-])OP(=O)([O-])[O-])[C@@H](O)[C@H]3O)c2n1.[Na+].[Na+].[Na+].[Na+]`
Condition not met

Is the recorded value of Plate 1 (% conversion) equal to or greater than 40% for this compound? `COc1cccc(C(=O)NCCN2CCN(c3ccc(Cl)cc3)CC2)c1`
Condition not met

Plate 1 (% conversion) >= 40% for CC(=O)OCC(=O)[C@@]1(O)CC[C@H]2[C@@H]3CCC4=CC(=O)CC[C@]4(C)[C@H]3C(=O)C[C@@]21C [Cortisone 21-acetate] ?
Condition not met

----------
- measuredOn: His6-AspH315–758 (human aspartate/asparagine-β-hydroxylase, AspH) (Homo sapiens)
- Construct: N-Terminally His6-tagged human AspH315–758 (His6-AspH315–758) was produced in E. coli BL21 (DE3) cells; made in house; host or cells: E. coli BL21 (DE3), pET-28a(+) vector
- testProtocol: SPE-MS AspH inhibition assay (LOPAC screen at fixed 20 μM and IC50 dose-response), hydroxylation of cyclic peptide hFX-CP101–119
- Type: biochemical
- conditionSummary: LOPAC compound at 20uM, plate 3; conversion of substrate peptide
Where a name gives a salt, the structure may show the parent alone. Residues, ends and D or L forms follow the SMILES beside them. *: point of attachment. Cbz = O=C(OCc1ccccc1)*
Rule: Plate 3 (% conversion) under 40% gives -1, otherwise 1.

Previously resolved entries follow.
{"compound": "OCCN1CCN(CCCN2c3ccccc3Sc3ccc(Cl)cc32)CC1", "groupLabel": 1}
{"compound": "CC(N)(Cc1ccc(O)c(O)c1)C(=O)O (racemic)", "groupLabel": -1}
{"compound": "O=C(N[C@H]1CN2CCC1CC2)c1cc2ccoc2cn1", "groupLabel": -1}
{"compound": "COc1ccccc1N1CCN(CCN(C(=O)c2ccc(F)cc2)c2ccccn2)CC1.Cl.Cl [p-MPPF dihydrochloride]", "groupLabel": 1}
{"compound": "CC1CNCCN1S(=O)(=O)c1cccc2cnccc12.Cl.Cl (centres unmarked)", "groupLabel": -1}

Is Plate 3 (% conversion) for CC[C@@]1(O)C(=O)OCc2c1cc1n(c2=O)Cc2cc3c(CN(C)C)c(O)ccc3nc2-1.Cl.O [Topotecan hydrochloride hydrate] at or above 40%?
-1

Does the compound CC(C)N(CCC(=O)c1ccc2ccccc2c1)Cc1ccccc1.Cl [ZM 39923 hydrochloride] have recorded Plate 3 (% conversion) that is 40% or more?
-1

Tell me whether Plate 3 (% conversion) is at least 40% here: COc1ccc(CN(CCN(C)C)c2ccccn2)cc1 [Pyrilamine maleate]
-1

Is the recorded value of Plate 3 (% conversion) equal to or greater than 40% for this compound? `N[C@@H](CCC(=O)N[C@@H](CSN=O)C(=O)NCC(=O)O)C(=O)O`
-1

Record CC1COc2c(N3CCN(C)CC3)c(F)cc3c(=O)c(C(=O)O)cn1c23 (centres unmarked) ; criterion: Plate 3 (% conversion) no lower than 40%. Met?
1

Entry `Cc1cc2c(cc1Cl)N(C(=O)Nc1cccc3ncccc13)CC2` : is its Plate 3 (% conversion) no less than 40%?
1

API: above_or_equal(metric=Plate 3 (% conversion), cutoff=40%) for item `O=c1[nH]c2cc(C(F)(F)F)ccc2n1-c1cc(C(F)(F)F)ccc1O`
-1

Hi, just wondering whether `CCN(CC)CCCCNc1ncc2cc(-c3c(Cl)cccc3Cl)c(NC(=O)NC(C)(C)C)nc2n1` shows Plate 3 (% conversion) of 40% or higher.
1

Form field: Plate 3 (% conversion) at least 40%? Entry: CC(C)[C@H](NC(=O)OCc1ccccc1)C(=O)N[C@H](C=O)Cc1ccccc1 [MDL 28170] (Cbz-Val-Phe-aldehyde)
-1

Answer whether Plate 3 (% conversion) of CC(CN1c2ccccc2Sc2ccccc21)N(C)C (centres unmarked) [Promethazine hydrochloride] is greater than or equal to 40%.
1

Entry CC(C(O)c1ccc(O)cc1)N1CCC(Cc2ccccc2)CC1.CC(C(O)c1ccc(O)cc1)N1CCC(Cc2ccccc2)CC1.O=C(O)C(O)C(O)C(=O)O (centres unmarked) [Ifenprodil tartrate] : is its Plate 3 (% conversion) no less than 40%?
-1

----------
- measuredOn: His6-AspH315–758 (human aspartate/asparagine-β-hydroxylase, AspH) (Homo sapiens, UniProt Q12797)
- Construct: N-Terminally His6-tagged human AspH315–758 (His6-AspH315–758) was produced in E. coli BL21 (DE3) cells; made in house; host or cells: E. coli BL21 (DE3), pET-28a(+) vector
- Sequence (Q12797 315-758): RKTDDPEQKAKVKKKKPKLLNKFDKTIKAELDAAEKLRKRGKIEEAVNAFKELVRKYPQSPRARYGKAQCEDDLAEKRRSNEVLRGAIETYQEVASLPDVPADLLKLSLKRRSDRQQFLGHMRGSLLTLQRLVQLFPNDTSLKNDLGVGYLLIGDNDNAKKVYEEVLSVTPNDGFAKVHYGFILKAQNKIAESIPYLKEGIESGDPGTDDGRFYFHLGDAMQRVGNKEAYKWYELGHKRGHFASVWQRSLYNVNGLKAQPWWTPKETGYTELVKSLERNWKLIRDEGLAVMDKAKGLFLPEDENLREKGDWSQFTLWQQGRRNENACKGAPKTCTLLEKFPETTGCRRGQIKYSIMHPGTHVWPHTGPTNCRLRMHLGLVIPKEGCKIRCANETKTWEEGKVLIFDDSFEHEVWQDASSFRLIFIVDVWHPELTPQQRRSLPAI
- testProtocol: SPE-MS AspH inhibition assay (LOPAC screen at fixed 20 μM and IC50 dose-response), hydroxylation of cyclic peptide hFX-CP101–119
- Format: biochemical
- conditionSummary: plate 5 (Pfitzer), test compounds at fixed 20 μM; mean conversion DMSO 32.88
Criterion: Plate 5 (% conversion) meeting or surpassing 20%. Met: Y. Not met: N.

{"molecule": "CCCCCCCCCCCCCCCCCCN(CCCCCCCCCCCCCCCCCC)CCCN(CCO)CCO", "groupLabel": "Y"}
{"molecule": "CN(C)c1cc(NC(=O)CNC(C)(C)C)c(O)c2c1C[C@H]1C[C@H]3[C@H](N(C)C)C(O)=C(C(N)=O)C(=O)[C@@]3(O)C(O)=C1C2=O [Tigecycline, tigecycline, reference compound]", "groupLabel": "N"}
{"molecule": "Cc1c([N+](=O)[O-])cc2[nH]c(=O)c(=O)[nH]c2c1CN1CCCC1", "groupLabel": "Y"}

Evaluate `CC(C)Nc1cccnc1N1CCN(C(=O)c2cc3cc(NS(C)(=O)=O)ccc3[nH]2)CC1` : Plate 5 (% conversion) at minimum 20%?
Y

Plate 5 (% conversion) >= 20% for `CC(C)c1cc(C(C)C)c(CC(=O)NS(=O)(=O)Oc2c(C(C)C)cccc2C(C)C)c(C(C)C)c1` ?
N

# check: Plate 5 (% conversion) of `CO[C@H]1C[C@@H]2CC[C@@H](C)[C@@](O)(O2)C(=O)C(=O)N2CCCC[C@H]2C(=O)O[C@H]([C@H](C)C[C@@H]2CC[C@@H](OC(=O)C(C)(CO)CO)[C@H](OC)C2)CC(=O)[C@H](C)/C=C(\C)[C@@H](O)[C@@H](OC)C(=O)[C@H](C)C[C@H](C)/C=C/C=C/C=C/1C` is greater than or equal to 20%
N

----------
- measuredOn: His6-AspH315–758 (human aspartate/asparagine-β-hydroxylase, AspH) (Homo sapiens)
- Construct: N-Terminally His6-tagged human AspH315–758 (His6-AspH315–758) was produced in E. coli BL21 (DE3) cells; made in house; host or cells: E. coli BL21 (DE3), pET-28a(+) vector
- testProtocol: SPE-MS AspH inhibition assay (LOPAC screen at fixed 20 μM and IC50 dose-response), hydroxylation of cyclic peptide hFX-CP101–119
- Format: biochemical
Structures can show the parent of a compound that is named as a salt.
reportedEndpoint: % conversion (%)
API: value field is a number in %; no unit string.

Find the recorded % conversion belonging to Brc1c(NC2=NCCN2)ccc2nccnc12 [UK 14,304] and report it.
39.75

Recorded % conversion of Nc1ncnc2c1ncn2C1CCCO1 (stereo not drawn) [SQ 22536] , please.
37.42

Look up % conversion for this compound: Cc1cc(C(C)(C)C)cc(C)c1CC1=NCCN1 [Xylometazoline hydrochloride]
31.88

Any idea what % conversion was measured for NCC(CP(=O)(O)O)c1ccc(Cl)cc1 (stereo not drawn) [Phaclofen] ?
34.58

Which measured % conversion value corresponds to COc1ccccc1N1CCN(CCN(C(=O)C2CCCCC2)c2ccccn2)CC1.O=C(O)/C=C\C(=O)O [WAY-100635 maleate] ?
42.39

Requested field: % conversion. Item: CC(=O)[C@H]1CC[C@H]2[C@@H]3CC=C4C[C@@H](OS(=O)(=O)[O-])CC[C@]4(C)[C@H]3CC[C@]12C.[Na+] [Pregnenolone sulfate sodium]
34.01

% conversion lookup needed for Br.COc1ccc(-c2ccc(=N)n(CCCC(=O)O)n2)cc1 [SR-95531] , thanks.
38.69

Field request: % conversion | item: Cl.NNC(N)=O [Semicarbazide hydrochloride]
22.57

Which % conversion value belongs to S=C([S-])OC1CC2CC1C1CCCC21.[K+] [D-609 potassium] ?
29.00
